# assay.protocol: growth inhibitors of wild-type E. coli, primary screen, strain BW25113, expanded library, OD600 (AID 710);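 note: growth measured after 20 h incubation at 37 °C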
# condition.set: OD600 absorbance, at 100 µM, hits give high values
Screen size: about 98,000 compounds; about 150 (0.15%) were called active. Many of the other results were omitted from the sample, so actives are more common in it than they were.
Listing of recorded growth inhibition by entry.
assay.metric: growth inhibition (%)

COc1ccc(Nc2nc(-c3ccccc3)cs2)cc1 = -6
CCCCNc1ccc(C(=O)Nc2cccc(C)n2)cc1[N+](=O)[O-] = 4
Cc1ccc(OCC(=O)Nn2cnc3ccccc32)cc1 = 5
FC(F)(F)c1ccc2nnc(-c3c(Cl)cccc3Cl)n2c1 = -2
O=C(NCc1cccnc1)c1cccnc1Sc1ccc(Cl)cc1 = 10
Cc1ccc(NC(=S)NC2CCCC2)cc1 = 10
CSc1ccccc1C(=O)Nc1cccc(C(C)=O)c1 = -4
O=C(O)CSCC(=O)Nc1cccc(C(F)(F)F)c1 = 3
Cc1ccc(-c2nc3ccccc3[nH]2)cc1NC(=O)c1sc2ccccc2c1Cl = -18
Nc1c(-c2ccc(F)cc2)cnn1C1CCS(=O)(=O)C1 (stereo not drawn) = 15
CCOc1ccccc1NC(=O)C12CC3CC(C1)CC(c1ccc(C)cc1)(C3)C2 = -16
CCOC(=O)c1nn(-c2cccc(C)c2)cc1C(=O)c1ccccc1 = 5
Cc1cc([N+](=O)[O-])ccc1NCc1cccc([N+](=O)[O-])c1 = -11
COc1ccccc1CSc1nc2ccccc2[nH]1 = 8
FC(F)(F)c1cccc(NC(=S)Nc2cccc(Cl)c2)c1 = 50
COc1cc(/C=C2\SC(=S)N(Nc3ncc(C(F)(F)F)cc3Cl)C2=O)cc(OC)c1OC = -7
COC(=O)c1ccccc1Oc1c(F)c(F)nc(N2CCOCC2)c1F = 7
COc1ccc(/C=C2\CCCC3C2=NN(C(=O)c2scnc2C)C3c2ccc(OC)cc2)cc1 (stereo not drawn) = -16
Cc1ccc(C(=O)N2CCN(C(=O)N3CCOCC3)CC2)cc1 = 0
O=C(c1ccc2c(c1)OCO2)N1CCN(C(=O)c2ccco2)CC1 = 2
Cc1cc(C)c(S(=O)(=O)N2C=CC(C(F)(F)F)=NCC2)c(C)c1 = 7
CNC(=S)NNC(=O)c1sccc1OCc1ccccc1 = -7
COC(=O)CNC(c1ccccc1Cl)c1cc(Br)ccc1NC(=O)CCN1CCOCC1 (stereo not drawn) = -3

====

# assay.protocol: growth inhibitors of wild-type E. coli, primary screen, strain BW25113, expanded library, OD600 (AID 710);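 note: growth measured after 20 h incubation at 37 °C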
# condition.set: OD600 absorbance, at 100 µM, hits give high values
The campaign covered roughly 98,000 compounds. About 150 (0.15%) were called active. The sample holds actives, similar compounds and a random draw of the others, so the mix is not that of the screen.
Listing of recorded growth inhibition by entry.
assay.metric: growth inhibition (%)

CCCC(=O)Nc1nc2ccc(NC(=O)c3cccnc3)cc2s1 = 8
CCOc1ccc(C(O)Cn2c(=N)n(CCN3CCCCC3)c3ccccc32)cc1 (stereo unspecified) = -1
CCOc1ccc(S(=O)(=O)Nc2nc3cc(OC)ccc3s2)cc1 = -6
ON=C1/C(=N\O)CC2(C/C1=N/O)OCCO2 = 57
O=C(CCN1c2ccccc2Sc2ccccc21)Nc1ccccc1 = -21
Cn1c(-c2sc3cc(C(F)(F)F)cnc3c2-c2ccccc2)n[nH]c1=S = -2
Cc1ccc(-n2nc3ccc(NC(=O)/C=C/c4ccco4)cc3n2)cc1C = -1
COc1ccccc1N(C)S(=O)(=O)c1ccc(C(=O)N2CCC(C(N)=O)CC2)cc1 = 3
CCCOc1ccc(C2NC(=O)NC(c3ccccc3)=C2C(C)=O)cc1OCC (stereo unspecified) = -2
COC(=O)[C@@H](NC(=O)Nc1cc(Cl)ccc1C)C(C)C = 2
CC1CC(C)CN(C/C=C/c2ccccc2[N+](=O)[O-])C1 (stereo unspecified) = -1
